- targetSystem: TRKA (Homo sapiens, UniProt P04629)
- Construct: purchased DiscoveRx (KINOMEscan service)
- Sequence (P04629 33-796): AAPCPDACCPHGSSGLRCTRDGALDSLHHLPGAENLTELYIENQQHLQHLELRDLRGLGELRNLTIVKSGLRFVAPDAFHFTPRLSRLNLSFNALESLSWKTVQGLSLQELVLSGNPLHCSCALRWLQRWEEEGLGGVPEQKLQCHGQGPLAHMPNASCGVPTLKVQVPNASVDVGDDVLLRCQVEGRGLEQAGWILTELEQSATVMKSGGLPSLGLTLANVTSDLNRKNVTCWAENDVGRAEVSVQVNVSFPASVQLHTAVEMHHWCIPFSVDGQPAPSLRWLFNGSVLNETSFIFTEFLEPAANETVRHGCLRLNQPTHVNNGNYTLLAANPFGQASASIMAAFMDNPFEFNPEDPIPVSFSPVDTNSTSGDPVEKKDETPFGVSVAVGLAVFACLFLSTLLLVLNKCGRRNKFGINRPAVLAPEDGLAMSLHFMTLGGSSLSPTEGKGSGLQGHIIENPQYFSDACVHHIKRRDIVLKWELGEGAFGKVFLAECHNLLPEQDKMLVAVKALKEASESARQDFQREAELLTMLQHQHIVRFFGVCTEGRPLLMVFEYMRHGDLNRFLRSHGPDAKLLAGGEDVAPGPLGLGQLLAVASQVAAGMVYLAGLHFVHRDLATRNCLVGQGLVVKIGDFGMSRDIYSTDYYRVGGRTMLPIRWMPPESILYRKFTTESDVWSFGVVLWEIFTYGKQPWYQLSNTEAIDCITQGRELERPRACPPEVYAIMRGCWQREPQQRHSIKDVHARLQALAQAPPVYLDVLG
- Type: binding
- particulars: TRKA; 10 μM
As shown below, each of these compounds has a reported Percent control value.
Kindly answer with a numeric value in %, unit omitted.

Recorded Percent control, per entry:
{"compound": "C#Cc1cccc(Nc2c3cc(OCCOC)c(OCCOC)cc3nc[n+]2[Pt@SP2-2]([NH3+])([NH3+])[Cl])c1 [2a, cisplatin-erlotinib]", "endpointName": "Percent control", "number": 94}
{"compound": "COc1cc2c(Nc3ccc(Br)cc3F)[n+]([Pt-2]3([Cl])[NH2+]C4CCCCC4[NH2+]3)cnc2cc1OCC1CCN(C)CC1 (stereo not shown) [3b, oxaliplatin-vandetanib]", "endpointName": "Percent control", "number": 92}
{"compound": "Cc1ccc(NC(=O)c2ccc(CN3CCN(C)CC3)cc2)cc1Nc1nccc(-c2cccnc2)n1 [Imatinib, reference compound]", "endpointName": "Percent control", "number": 100}

Attention now turns to another entry.
[in] Any idea what Percent control was measured for Cc1ccc(NC(=O)c2ccc(CN3CCN(C)CC3)cc2)cc1Nc1nccc(-c2cccnc2)[n+]1[Pt-2]1([Cl])[NH2+]C2CCCCC2[NH2+]1 (stereo not shown) [1b, oxaliplatin-imatinib] ?
[out] 98

###

- targetSystem: FER (Homo sapiens, UniProt P16591)
- Construct: purchased DiscoveRx KINOMEscan
- Sequence (P16591 whole entry): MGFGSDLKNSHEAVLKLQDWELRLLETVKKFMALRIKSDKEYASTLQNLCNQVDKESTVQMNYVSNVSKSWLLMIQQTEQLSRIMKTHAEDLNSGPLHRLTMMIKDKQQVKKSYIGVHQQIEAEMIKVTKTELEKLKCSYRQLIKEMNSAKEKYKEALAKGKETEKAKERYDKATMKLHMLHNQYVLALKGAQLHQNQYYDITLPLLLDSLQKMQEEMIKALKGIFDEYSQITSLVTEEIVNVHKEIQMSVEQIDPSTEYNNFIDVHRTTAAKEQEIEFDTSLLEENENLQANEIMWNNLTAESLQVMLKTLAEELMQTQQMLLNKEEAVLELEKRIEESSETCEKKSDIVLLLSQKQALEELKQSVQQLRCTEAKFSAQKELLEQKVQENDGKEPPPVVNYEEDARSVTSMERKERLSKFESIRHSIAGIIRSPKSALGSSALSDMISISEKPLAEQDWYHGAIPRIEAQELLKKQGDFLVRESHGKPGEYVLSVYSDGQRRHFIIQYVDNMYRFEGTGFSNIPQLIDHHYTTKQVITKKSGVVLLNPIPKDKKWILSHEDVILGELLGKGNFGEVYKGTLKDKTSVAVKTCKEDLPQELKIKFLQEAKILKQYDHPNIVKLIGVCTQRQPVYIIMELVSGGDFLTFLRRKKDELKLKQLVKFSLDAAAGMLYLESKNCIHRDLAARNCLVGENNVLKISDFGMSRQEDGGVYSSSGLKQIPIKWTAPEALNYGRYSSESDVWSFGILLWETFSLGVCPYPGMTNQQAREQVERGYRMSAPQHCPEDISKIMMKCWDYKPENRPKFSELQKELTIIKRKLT
- Assay type: binding
- particulars: 10 μM
As shown below, each of these compounds has a reported Percent control value.
Kindly answer with a numeric value in %, unit omitted.

{"compound": "Cc1ccc(NC(=O)c2ccc(CN3CCN(C)CC3)cc2)cc1Nc1nccc(-c2cccnc2)n1 [Imatinib, reference compound]", "Percent control [%]": 100}
{"compound": "C#Cc1cccc(Nc2c3cc(OCCOC)c(OCCOC)cc3nc[n+]2[Pt@SP2-2]([NH3+])([NH3+])[Cl])c1 [2a, cisplatin-erlotinib]", "Percent control [%]": 95}
{"compound": "Cc1ccc(NC(=O)c2ccc(CN3CCN(C)CC3)cc2)cc1Nc1nccc(-c2cccnc2)[n+]1[Pt-2]1([Cl])[NH2+]C2CCCCC2[NH2+]1 (stereo not shown)", "Percent control [%]": 89}

Attention now turns to another entry.
[in] Provide value of Percent control for this record tested with FER (Homo sapiens, UniProt P16591): COc1cc2c(Nc3ccc(Br)cc3F)[n+]([Pt-2]3([Cl])[NH2+]C4CCCCC4[NH2+]3)cnc2cc1OCC1CCN(C)CC1 (stereo not shown)
[out] 90

###

- targetSystem: AXL (Homo sapiens)
- Sequence (P30530 26-894): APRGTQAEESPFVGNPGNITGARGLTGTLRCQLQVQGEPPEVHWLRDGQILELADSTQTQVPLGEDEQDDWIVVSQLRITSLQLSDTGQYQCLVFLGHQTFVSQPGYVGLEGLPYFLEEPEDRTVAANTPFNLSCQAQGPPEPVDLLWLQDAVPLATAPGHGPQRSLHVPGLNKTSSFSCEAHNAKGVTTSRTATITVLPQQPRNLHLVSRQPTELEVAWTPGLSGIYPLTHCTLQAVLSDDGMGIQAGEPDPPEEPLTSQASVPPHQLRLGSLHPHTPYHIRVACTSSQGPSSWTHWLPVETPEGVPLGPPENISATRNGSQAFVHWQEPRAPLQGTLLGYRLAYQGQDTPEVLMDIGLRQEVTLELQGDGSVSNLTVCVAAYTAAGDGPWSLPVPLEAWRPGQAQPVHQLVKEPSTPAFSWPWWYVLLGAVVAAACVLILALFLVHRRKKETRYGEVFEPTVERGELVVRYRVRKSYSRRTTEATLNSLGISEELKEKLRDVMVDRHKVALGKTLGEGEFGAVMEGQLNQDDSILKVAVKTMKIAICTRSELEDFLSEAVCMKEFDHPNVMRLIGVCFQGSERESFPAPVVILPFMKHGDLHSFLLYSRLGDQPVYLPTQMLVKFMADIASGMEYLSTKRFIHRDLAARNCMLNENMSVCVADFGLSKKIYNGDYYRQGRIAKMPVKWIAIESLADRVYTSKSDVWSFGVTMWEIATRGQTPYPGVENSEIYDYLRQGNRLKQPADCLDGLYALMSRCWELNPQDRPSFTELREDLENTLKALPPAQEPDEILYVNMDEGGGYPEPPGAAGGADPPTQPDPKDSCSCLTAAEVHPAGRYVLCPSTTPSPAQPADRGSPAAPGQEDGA
- particulars: 10 μM
As shown below, each of these compounds has a reported Percent control value.
Kindly answer with a numeric value in %, unit omitted.

Recorded Percent control, per entry:
{"compound": "Cc1ccc(NC(=O)c2ccc(CN3CCN(C)CC3)cc2)cc1Nc1nccc(-c2cccnc2)n1 [Imatinib, reference compound]", "targetSystem": "AXL (Homo sapiens)", "Percent control (%)": 100}
{"compound": "COc1cc2c(Nc3ccc(Br)cc3F)[n+]([Pt-2]3([Cl])[NH2+]C4CCCCC4[NH2+]3)cnc2cc1OCC1CCN(C)CC1 (stereo not shown)", "targetSystem": "AXL (Homo sapiens)", "Percent control (%)": 19}
{"compound": "C#Cc1cccc(Nc2c3cc(OCCOC)c(OCCOC)cc3nc[n+]2[Pt@SP2-2]([NH3+])([NH3+])[Cl])c1 [2a, cisplatin-erlotinib]", "targetSystem": "AXL (Homo sapiens)", "Percent control (%)": 93}

Attention now turns to another entry.
[in] Any idea what Percent control was measured for Cc1ccc(NC(=O)c2ccc(CN3CCN(C)CC3)cc2)cc1Nc1nccc(-c2cccnc2)[n+]1[Pt-2]1([Cl])[NH2+]C2CCCCC2[NH2+]1 (stereo not shown) ?
[out] 100
